Consider the following compounds and their measured Activity readings.
- METHOD_NOTES: Antioxidant activity assessed as trolox equivalents of AAPH radical scavenging activity at 10 uM preincubated for 15 mins followed by AAPH addition measured every minute for 120 mins by ORAC-FL assay
- Type: functional

RECORD_SMILES	Activity [equiv]
O=C(/C=C/c1ccc(F)cc1)N1CCN(Cc2ccc(O)c3ncccc23)CC1	1.45
N#Cc1ccc(/C=C/C(=O)N2CCN(Cc3ccc(O)c4ncccc34)CC2)cc1	1.77
O=C(CCc1ccc(Cl)cc1)N1CCN(Cc2ccc(O)c3ncccc23)CC1	2.57
O=C(/C=C/c1ccccc1Cl)N1CCN(Cc2ccc(O)c3ncccc23)CC1	0.71
Oc1c(I)cc(Cl)c2cccnc12	0.53
O=C(/C=C/c1ccc([N+](=O)[O-])cc1)N1CCN(Cc2ccc(O)c3ncccc23)CC1	0.71
O=C(/C=C/c1ccccc1)N1CCN(Cc2ccc(O)c3ncccc23)CC1	1.65
O=C(/C=C/c1ccc(Br)cc1)N1CCN(Cc2ccc(O)c3ncccc23)CC1	0.93
COc1ccc(/C=C/C(=O)N2CCN(Cc3ccc(O)c4ncccc34)CC2)cc1	1.25
COc1ccc(CCC(=O)N2CCN(Cc3ccc(O)c4ncccc34)CC2)cc1OC	3.74
COc1ccc(CCC(=O)N2CCN(Cc3ccc(O)c4ncccc34)CC2)cc1	2.89
O=C(O)CCc1ccccc1	0.86
